- Tested on: THP-1 macrophages
- protocol_summary: MTT viability of THP-1 macrophages (host cell cytotoxicity)
- Assay type: cell-based
- experimental_conditions: 72-hour incubation, MTT assay; read-out: 72 hr viability of THP-1 macrophages LC50
Provide the recorded CC50 for the entries that follow.
Answers are plain numbers, in µM.

Some molecules with known CC50 results, for comparison:
Nc1ccc(CNC2CCN(c3ccc(-n4nc(C(F)(F)F)cc4-c4ccc(-c5ccc(C(F)(F)F)cc5)cc4)cc3)C2)cc1 (stereo not shown) [Compound 23]    6.9
Oc1ccccc1CN1CCC(Nc2ccc(-n3nc(C(F)(F)F)cc3-c3ccc(-c4ccc(C(F)(F)F)cc4)cc3)cc2)C1 (stereo not shown) [Compound 91]    53.4
Oc1ccc(CNC2CCN(c3ccc(-n4nc(C(F)(F)F)cc4C4CCCCC4)cc3)CC2)cc1 [Compound 319]    7.2

For each of the molecules below, state CC50.
1. N[C@H]1CCN(c2ccc(-n3nc(C(F)(F)F)cc3-c3ccc(-c4ccc(C(F)(F)F)cc4)cc3)cc2)C1 [Compound 130]
2. CC(C)(C)C#Cc1ccc(-c2cc(C(F)(F)F)nn2-c2ccc(N3CCNCC3)cc2)cc1 [Compound 44]
3. NCC(=O)Nc1ccc(-n2cc(C(F)(F)F)nc2-c2ccc(-c3ccccc3)cc2)cc1 [Compound 50]

1: 6.4; 2: 14.5; 3: 42.7

Provide CC50 for all items below, preserving their order.
1. FC(F)(F)c1ccc(-c2ccc(-c3cc(C(F)(F)F)nn3-c3ccc(NC4CCNC4)cc3)cc2)cc1 (racemic) [Compound 25]
2. O=C(Nc1ccc(-n2cc(C(F)(F)F)nc2-c2ccc(-c3ccccc3)cc2)cc1)C1CCN(Cc2ccccc2)C1 (stereo not shown) [Compound 86]
3. N[C@@H]1CCN(c2ccc(-n3nc(C(F)(F)F)cc3-c3ccc(-c4ccc(C(F)(F)F)cc4)cc3)cc2)C1 [Compound 129]
4. NCC(=O)Nc1ccc(-n2ccnc2-c2ccc(-c3ccc(C(F)(F)F)cc3)cc2)cc1 [Compound 158]

1: 6.3; 2: 8.2; 3: 6.2; 4: 16.5

----------
- System: Intracellular L. mexicana amastigotes
- protocol_summary: microbe, parasite or virus in culture
- Type: cell-based, Leishmania mexicana
- experimental_conditions: Leishmania mexicana, Macrophage, 72 h, bone marrow derived macrophages, Giemsa staining, 72-hour incubation
readout_type: IC50

Please review the entries below; each comes with its answer.
N#Cc1ccc(CNCC(=O)Nc2ccc(-n3nc(C(F)(F)F)cc3C3CCCCC3)cc2)cc1    3500 nM
NC1CCN(c2ccc(-n3nncc3-c3ccc(C(F)(F)F)cc3)cc2)C1 (stereo not shown)    800 nM
NCC(=O)Nc1ccc(-n2nc(C(F)(F)F)cc2-c2ccc3c(ccc4ccccc43)c2)cc1 [AR-12, reference compound]    1500 nM

Alright, here's another molecule for you.
Which value of IC50 has been reported for O=C(CNCc1cccc(F)c1)Nc1ccc(-n2cc(C(F)(F)F)nc2-c2ccc(-c3ccc(C(F)(F)F)cc3)cc2)cc1 in the records?
< 2000 nM

----------
Record form. Attribute: CC50. Fill in for each entry.
- Test system: THP-1 macrophages
- protocol_summary: MTT viability of THP-1 macrophages (host cell cytotoxicity)
- Format: cell-based
- experimental_conditions: read-out: 24 hr viability of THP-1 macrophages 24h LC50; 24-hour incubation, MTT assay
- Method: Human monocytes, THP-1 (ATCC, TIB002) were used as host cells for Leishmania infection and to assess drug cytotoxicity. […] Effect of the compounds on THP-1 cell viability measured using thiazolyl blue tetrazolium bromide which measures cell metabolic activity (MTT). […] The reduced formazan crystals were solubilized with isopropyl alcohol and the absorbance of the resulting solution was measured at 560 nm with a background subtraction at 670 nm. […]
Numbers only, in µM.

Please review the following examples before continuing.
FC(F)(F)c1ccc(-c2ccc(-c3cc(C(F)(F)F)nn3-c3ccc(NC4CCNC4)cc3)cc2)cc1 (racemic)    28.9
NCC(=O)Nc1ccc(-n2ccnc2-c2ccc(-c3ccc(C(F)(F)F)cc3)cc2)cc1    16

Then this compound:
Given the entry NCC(=O)Nc1ccc(-n2cc(C(F)(F)F)nc2-c2ccc(-c3ccccc3)cc2)cc1 , report its measured CC50.
23.5

----------
- System: THP-1 macrophages
- protocol_summary: MTT viability of THP-1 macrophages (host cell cytotoxicity)
- Format: cell-based
- experimental_conditions: read-out: 24 hr viability of THP-1 macrophages 24h LC50; 24-hour incubation, MTT assay
Kindly state CC50 for each of the entries shown.
Give bare numbers, in µM.

Hi! Can you tell me CC50 for each of these compounds?
1. N[C@H]1CCN(c2ccc(-n3nc(C(F)(F)F)cc3-c3ccc(-c4ccc(C(F)(F)F)cc4)cc3)cc2)C1 [Compound 130]
2. Nc1ccc(CNC2CCN(c3ccc(-n4nc(C(F)(F)F)cc4-c4ccc(-c5ccc(C(F)(F)F)cc5)cc4)cc3)C2)cc1 (stereo not shown) [Compound 23]

[4.2, 5.8]

Provide CC50 values for the following items, in order.
1. CC(C)(C)C#Cc1ccc(-c2cc(C(F)(F)F)nn2-c2ccc(N3CCNCC3)cc2)cc1 [Compound 44]
2. O=C(Nc1ccc(-n2cc(C(F)(F)F)nc2-c2ccc(-c3ccccc3)cc2)cc1)C1CCN(Cc2ccccc2)C1 (stereo not shown) [Compound 86]

[7.4, 21.9]

List reported CC50 for each of these compounds:
1. Oc1ccc(CNC2CCN(c3ccc(-n4nc(C(F)(F)F)cc4C4CCCCC4)cc3)CC2)cc1 [Compound 319]
2. N[C@@H]1CCN(c2ccc(-n3nc(C(F)(F)F)cc3-c3ccc(-c4ccc(C(F)(F)F)cc4)cc3)cc2)C1 [Compound 129]

6.4
6.3
